# assay-system: human B-Raf (Homo sapiens)
# Construct: Flag; GST; made in house; host or cells: Sf9 insect cells (B-Raf); E. coli (MEK1-GST)
# test-method-notes: B-Raf Kinase to MEK1 ELISA
# Type: biochemical
# protocol-conditions: read-out: % Inhib./10 uM
measured-metric: inhibition at 10 µM (%)

I = COc1ccc(C(=O)Nc2cccc(-c3ccnc4c(-c5cccnc5)cnn34)c2)cc1C(F)(F)F
II = Cc1ccc(-c2cnn3c(-c4cccc(NC(=O)c5cccc(C(F)(F)F)c5)c4)ccnc23)cc1
Q: Between I and II , whose measured inhibition at 10 µM reads higher? Write down the label of the entry you select.
Ans: I

I = O=C(Nc1cccc(-c2ccnc3c(-c4cccnc4)cnn23)c1)c1ccc(F)c(C(F)(F)F)c1
II = COC(=O)c1cccc(-c2cnn3c(-c4cccc(NC(=O)c5cccc(C(F)(F)F)c5)c4)ccnc23)c1
Q: Among I and II , whose measured inhibition at 10 µM is the smaller figure? Write down the label of the entry you select.
Ans: II
(II: 53%, I: 87%)

====

Entries annotated with measured IC50
# assay-system: human B-Raf (Homo sapiens)
# Construct: Flag; GST; made in house; host or cells: Sf9 insect cells (B-Raf); E. coli (MEK1-GST)
# test-method-notes: B-Raf Kinase to MEK1 ELISA
# Assay type: biochemical
# protocol-conditions: median; cpd concentrations from 10 μM to 30 nM in half log dilutions; read-out: Median IC50

Solved cases below.
{"molecule": "CN(C)C1CCN(c2cc3nccc(-c4cccc(NC(=O)c5cccc(C(F)(F)F)c5)c4)n3n2)C1 (centres unmarked) [Example 209]", "IC50": "> 10 µM"}
{"molecule": "CCOC(=O)c1cnn2c(-c3cc(NC(=O)c4cccc(C(F)(F)F)c4)ccc3F)ccnc12 [Example 91]", "IC50": "0.112 µM"}
{"molecule": "N#Cc1ccc(-c2cnn3c(-c4cccc(NC(=O)c5cccc(C(F)(F)F)c5)c4)ccnc23)cc1 [Example 295]", "IC50": "> 10 µM"}
{"molecule": "Cc1ccc(C(=O)Nc2cccc(-c3ccnc4c(-c5ccccn5)cnn34)c2)cc1C(F)(F)F [Example 65]", "IC50": "> 10 µM"}
{"molecule": "CCOC(=O)c1cnn2c(-c3cccc(NC(=O)CC(C)CC(C)(C)C)c3)ccnc12 (centres unmarked) [Example 226]", "IC50": "> 10 µM"}

Q: Return reported IC50; argument: O=C(Nc1cccc(-c2ccnc3cc(-c4ccncc4)nn23)c1)Nc1ccc(F)c(C(F)(F)F)c1 [Example 131]
Ans: 0.03 µM

Q: Return reported IC50; argument: O=C(Nc1cccc(-c2ccnc3cc(-c4ccc(Cl)cc4)nn23)c1)c1cccc(C(F)(F)F)c1 [Example 115]
Ans: > 10 µM

Q: Return reported IC50; argument: CCOC(=O)c1cnn2c(-c3cccc(NC(=O)c4ccc(F)cc4C(F)(F)F)c3)ccnc12 [Example 76]
Ans: > 10 µM

====

# assay-system: human B-Raf (Homo sapiens, UniProt P15056)
# Construct: Flag; GST; made in house; host or cells: Sf9 insect cells (B-Raf); E. coli (MEK1-GST)
# Sequence (P15056 whole entry): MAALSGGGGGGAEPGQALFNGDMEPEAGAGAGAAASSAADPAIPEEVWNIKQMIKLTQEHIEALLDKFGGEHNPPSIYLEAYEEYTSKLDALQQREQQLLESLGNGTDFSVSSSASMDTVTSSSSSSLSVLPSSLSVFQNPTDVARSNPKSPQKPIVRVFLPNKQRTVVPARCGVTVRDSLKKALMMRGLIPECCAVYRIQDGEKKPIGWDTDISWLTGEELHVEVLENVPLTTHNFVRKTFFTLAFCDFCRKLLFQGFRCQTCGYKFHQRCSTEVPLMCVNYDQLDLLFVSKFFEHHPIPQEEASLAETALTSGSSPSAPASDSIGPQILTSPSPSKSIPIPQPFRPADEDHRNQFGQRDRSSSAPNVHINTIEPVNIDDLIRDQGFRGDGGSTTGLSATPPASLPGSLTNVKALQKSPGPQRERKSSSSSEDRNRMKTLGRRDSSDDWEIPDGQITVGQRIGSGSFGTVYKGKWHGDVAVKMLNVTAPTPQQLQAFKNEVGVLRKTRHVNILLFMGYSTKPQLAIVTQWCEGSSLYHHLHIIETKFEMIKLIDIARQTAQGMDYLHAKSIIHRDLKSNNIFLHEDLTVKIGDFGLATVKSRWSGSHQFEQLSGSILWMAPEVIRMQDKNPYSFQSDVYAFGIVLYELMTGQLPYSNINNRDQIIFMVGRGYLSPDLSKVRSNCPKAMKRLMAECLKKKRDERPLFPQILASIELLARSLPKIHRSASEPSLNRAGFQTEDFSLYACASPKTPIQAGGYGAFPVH
# test-method-notes: B-Raf Kinase to MEK1 ELISA
# Type: biochemical
# protocol-conditions: median; cpd concentrations from 10 μM to 30 nM in half log dilutions; read-out: Median IC50
# Method: TITLE: B-Raf Kinase to MEK1 ELISA PURPOSE: To discover B-Raf Kinase inhibitors that can inhibit growth of tumor cells which contain oncogenic forms of Receptor Tyrosine Kinases or K-Ras, or B-Raf kinase. […] B-Raf-1 is used to phosphorylate GST-MEK1. MEK1 phosphorylation is measured by a phospho-specific antibody (from Cell Signaling Technology, cat. #9121) that detects phosphorylation of two serine residues at positions 217 and 221 on MEK1. […] 11. Read plates in Wallac Victor model Plate Reader. […]
pIC50: −log10 of the molar value.
measured-metric: pIC50

Solved cases below.
{"compound": "O=C(Nc1cccc(-c2ccnc3c(-c4ccncc4)cnn23)c1)c1ccc(F)c(C(F)(F)F)c1 [Example 190]", "pIC50": 6.03}
{"compound": "O=C(Nc1cccc(-c2ccnc3c(-c4cccnc4)cnn23)c1)Nc1cccc(C(F)(F)F)c1 [Example 173]", "pIC50": 6.36}
{"compound": "CN(C)CCCNc1cc(-c2cc3nccc(-c4cccc(NC(=O)c5cccc(C(F)(F)F)c5)c4)n3n2)ccn1 [Example 257]", "pIC50": 7.13}

P = CCOC(=O)c1cnn2c(-c3cccc(NC(=O)Nc4ccc(OC)c(Cl)c4)c3)ccnc12 [Example 81]
Q = O=C(O)c1cccc(-c2cnn3c(-c4cccc(NC(=O)c5cccc(C(F)(F)F)c5)c4)ccnc23)c1 [Example 314]
Q: Between P and Q , whose measured pIC50 reads higher? Write down the label of the entry you select.
Ans: Q
(Q: 6.29, P: 5.21)

a = O=C1CN(c2cc3nccc(-c4cccc(NC(=O)c5cccc(C(F)(F)F)c5)c4)n3n2)CCN1 [Example 249]
b = O=C(Nc1cccc(-c2ccnc3cc(N4CCOCC4)nn23)c1)c1ccc(F)c(C(F)(F)F)c1 [Example 196]
c = O=C(Nc1cccc(-c2ccnc3c(C(=O)NCCCN4CCOCC4)cnn23)c1)c1cccc(C(F)(F)F)c1 [Example 53]
Q: Arrange by pIC50, high to low. A ranking is expressed here by listing the labels in the requested order.
Ans: b, a, c
